Form field: MIC (one value per entry).
Test system: Staphylococcus aureus
Assay: Antibacterial activity against community acquired methicillin-resistant Staphylococcus aureus HT20041010 in Mueller-Hinton medium
Type: functional
Numeric only. Scale: µg/mL

Cc1onc(-c2ccccc2)c1C(=O)N[C@@H]1C(=O)N2[C@@H]1SC(C)(C)[C@@H]2C(=O)O 32

# query: MIC | item CC(=O)NC[C@H]1CN(c2ccc(N3CCOCC3)c(F)c2)C(=O)O1 | system: Staphylococcus aureus 1

src = ChEMBL document CHEMBL1147090
